Test system: Mus musculus
Assay: In vivo antinociceptive activity in mouse tail flick test following p.o. administration.
Assay type: functional
Conditions: Mus musculus, Tail, po; read-out: ED50
Entries and their ED50 values follow.
Property name: ED50 (µmol/kg)

> print(dat)
                                   molecule   test.target  property.name  value.measured
1  O=C(Cc1ccc(Cl)c(Cl)c1)N1CCc2ccccc2C1CN1CCCCC1 (racemic)  Mus musculus           ED50            5.16
2  O=C(Cc1ccc(C(F)(F)F)cc1)N1CCc2sccc2C1CN1CCCCC1 (stereo not given)  Mus musculus           ED50            4.65
3  O=C(Cc1cccc([N+](=O)[O-])c1)N1CCc2ccccc2C1CN1CCCC1 (racemic)  Mus musculus           ED50            5.26
4  O=C(Cc1ccc(Cl)c(Cl)c1)N1CCc2ccccc2C1CN1CCCC1 (stereo not given)  Mus musculus           ED50           0.626
5  CCN(CC)CC1c2ccccc2CCN1C(=O)Cc1ccc(Cl)c(Cl)c1 (racemic)  Mus musculus           ED50            3.37

Provenance of the data: ChEMBL document CHEMBL1125862
